Sourced from PubChem BioAssay (NCI)

Test system: UACC-257 melanoma
Experiment: NCI tumour cell line growth inhibition, 48 h
OBSERVATION TYPE: TGI

Here is how some compounds turned out for TGI.
For CC(C)(C)N/N=C(\C(=O)Nc1nc(=S)[nH][nH]1)C1C(=O)Nc2ccccc2S1=O (centres undefined) , write its TGI. > 100 µM

For N/N=C(\c1nc2ccc(Cl)cc2[nH]c1=O)C(O)c1ccc(Cl)c(Cl)c1 (centres undefined) , write its TGI. > 100 µM

For CCCOP(=O)(OCCC)OC(C(F)(F)F)C(F)(F)F , write its TGI. > 100 µM

For O=C1CSC(c2ccc([N+](=O)[O-])cc2)N1c1ccc(-c2ccc(-n3c(-c4ccccc4)nc4ccccc4c3=O)cc2)cc1 (centres undefined) , write its TGI. > 100 µM

For CCC(CC)(CO)CNc1cc(Cl)nc(N)n1 , write its TGI. > 100 µM

For COC(=O)c1c2c(c(C)[n+]([O-])c1C)C(=O)C=C(NCc1cccc(Cl)c1)C2=O , write its TGI. 0.725 µM

For Cc1ccc(S(=O)(=O)C2=c3nc4ccccc4cc3=C3C(=O)c4ccccc4C(=O)C32)cc1 (centres undefined) , write its TGI. > 100 µM

For O=C1CC(=O)NC(=NN2C(=O)CSC2C(=O)c2ccco2)N1 (centres undefined) , write its TGI. > 100 µM

Next:
For C/C=C(\C)C(=O)O[C@@H]1CC(C)(C)CC2C3=CCC4[C@]56CC[C@](O)(OC5)C(C)(C)C6CC[C@@]4(C)C3(C)CC[C@]21C(=O)O (some centres undefined) , write its TGI. > 100 µM

For O=C(C#Cc1ccccc1)C1=Cc2ccccc2OC1 , write its TGI. 8.23 µM

For C[C@H]1COCCN1c1cc(C2(S(=O)(=O)C3CC3)CC2)nc(-c2ccc(NC(=S)NCCO)cc2)n1 , write its TGI. 0.32 µM

For CCSc1nc(=S)n(-c2ccccc2)c(C)c1C(C)=O , write its TGI. > 100 µM

For C=C1SC(=Nc2ccccc2Cl)N(C(=O)c2sc3ccccc3c2Cl)C12CCCCC2 , write its TGI. > 100 µM

For NC(=O)c1cccc(OCC(O)CO)c1 (centres undefined) , write its TGI. > 100 µM

* * *

Test system: TK-10 renal
Assay: NCI tumour cell line growth inhibition, 48 h
# TGI per entry

Give TGI only, for CCCCCCCC(=O)SCC/C=C/[C@@H]1CC(=O)NCc2nc(cs2)C2=N[C@@](C)(CS2)C(=O)N[C@@H](C(C)C)C(=O)N1 , using TK-10 renal data. 0.316 µM

Give TGI only, for C/C(CC(=O)Nc1ccccc1C)=N/NS(=O)(=O)c1ccc(C)cc1 , using TK-10 renal data. > 100 µM

Next:
Give TGI only, for CC(=O)O[C@H]1C(=O)[C@@]2(C)[C@H]([C@H](OC(=O)c3ccccc3)[C@]3(O)C[C@H](OC(=O)[C@H](OC(=O)OC[C@H]4COC(C)(C)O4)[C@@H](NC(=O)c4ccccc4)c4ccccc4)C(C)=C1C3(C)C)[C@]1(OC(C)=O)CO[C@@H]1C[C@@H]2O , using TK-10 renal data. > 33.3 µM

* * *

Test system: PC-3 prostate
Assay: NCI tumour cell line growth inhibition, 48 h; in the data active = GI50 below about 0.43 µM; inactive = the rest
Assign a class; possible classes are active, inactive

Record request — test call for Cn1nc(C(F)(F)F)c(-c2cc(C(F)(F)F)cc(C(F)(F)F)c2)c1-c1ccc(OCc2ccc(Cl)cc2)cc1O inactive

Record request — test call for C[C@H]1COCCN1c1cc(C2(S(=O)(=O)C3CC3)CC2)nc(-c2ccc(NC(=S)NCCO)cc2)n1 active

Record request — test call for ClCc1ccccc1Cn1cnc2c(Cl)ncnc21 inactive

Record request — test call for O=c1oc2cc(OC/C(=N/O)c3ccc(F)cc3)ccc2c2ccccc12 inactive

Attention now turns to another entry.
Record request — test call for CCCCCCCCCCCCCCCCOP(=O)([O-])OCC[N+](C)(C)C active

* * *

System: SK-MEL-5 melanoma
Assay: NCI tumour cell line growth inhibition, 48 h
# log10(TGI) per entry
For clarity, the numbers are log10 values of TGI expressed in µM.

For Nc1nc2cc(CC[C@H]3C[C@@H](n4ccc5c(N)ncnc54)[C@H](O)[C@@H]3O)ccc2cc1Br , write its log10(TGI). 0.47

Next:
For C=C1C(=O)O[C@H]2[C@H]1CC/C(Cn1cc(-c3ccc(F)cc3)nn1)=C\CC[C@@]1(C)O[C@@H]21 , write its log10(TGI). 0.49

For COC(=O)[C@@H](C)[C@H]1CC[C@@](C)(CCC2=C(C)CC3C=C(C)CCC3C2(C)C)OO1 (some centres undefined) , write its log10(TGI). 0.46

For COc1ccc2c(c1OC)C(C(Cl)(Cl)Cl)N1CCc3cc4c(cc3C1=C2)OCO4 (centres undefined) , write its log10(TGI). 1.19

* * *

# TGI per entry
Test system: UACC-62 melanoma
Assay: NCI tumour cell line growth inhibition, 48 h

Here is how some compounds turned out for TGI.
For CC(=O)O[C@H]1C(=O)[C@@]2(C)[C@H]([C@H](OC(=O)c3ccccc3)[C@]3(O)C[C@H](OC(=O)[C@H](OC(=O)OC[C@H]4COC(C)(C)O4)[C@@H](NC(=O)c4ccccc4)c4ccccc4)C(C)=C1C3(C)C)[C@]1(OC(C)=O)CO[C@@H]1C[C@@H]2O , write its TGI. > 33.3 µM

For CCOC(=O)C12C(C(=O)OC)=C(C)N(NC(=O)Nc3ccccc3)C1(N)N(NC(=O)Nc1ccccc1)C(C)=C2C(=O)OC (stereo not given) , write its TGI. 34.5 µM

For CCCCCC[C@@H](C)NC(=O)c1ccc(Nc2nc3ccccc3c3occc23)cc1 , write its TGI. > 100 µM

For NC(=O)c1cccc(OCC(O)CO)c1 (stereo not given) , write its TGI. > 100 µM

Next:
For COC1CCC(OC)C(C2(C3CC(OC)CCC3OC)OC(=O)c3ccccc32)C1 (stereo not given) , write its TGI. > 100 µM

For O[C@@H]1CCC[C@@H]2NC[C@@H](c3ccc4c(c3)OCO4)[C@H]12 , write its TGI. > 100 µM

For Cc1c(C)c(C)c(-n2c(=O)n(C)c(=O)n2-c2cc(C(C)(C)C)cc(C(C)(C)C)c2O)c(C)c1C , write its TGI. 23.7 µM

For Cc1cc2c(cc1C)C(=O)C1(C2)Cc2cc3c(cc2C1=O)CCC3 (stereo not given) , write its TGI. > 100 µM

For O=C(CI)Nc1ccc(O)c2ccccc12 , write its TGI. 3.44 µM

For O=C(Nc1ccccc1-c1nn(CN2CCNCC2)c(=S)n(CN2CCNCC2)c1=O)C(F)(F)F , write its TGI. 32.5 µM

For COC(=O)c1ccccc1/C=C1\Cc2ccc3c(c2C1=O)CCCC3 , write its TGI. > 100 µM

For COC(=O)C1=C(O)CCCC(C2CCCCC(=O)C2C(=O)OC)=C1 (stereo not given) , write its TGI. 42.3 µM

For Cc1[nH]c2ccccc2c1/C=N/NC(=O)c1cccc(I)c1 , write its TGI. 34.5 µM

For CC(C)(C)NC(=O)/C(=C\Sc1ccccc1)c1ccccc1 , write its TGI. > 100 µM

For C=CCOC(OCC=C)/C(Br)=C/C , write its TGI. > 100 µM

For Cn1c(-c2ccccc2)c(/C=C/C2=[N+](C)c3ccccc3C2(C)C)c2ccccc21 , write its TGI. 3.97 µM

For COC(=O)C1=C(C(=O)OC)C(N(C)C)C(C(=O)OC)=C(C(=O)OC)S1 , write its TGI. > 100 µM

For CCOC(=O)C(Cc1ccccc1)NC(=O)c1[nH]cnc1/N=N/N(C)C (stereo not given) , write its TGI. > 100 µM

For COc1ccc(/C=C2\SC(=Nc3ccccc3)NC2=O)cc1 , write its TGI. > 100 µM

For COc1cc(NS(C)(=O)=O)ccc1NCc1c2ccccc2nc2ccccc12 , write its TGI. > 100 µM

* * *

System: HCT-15 colon
Assay: NCI tumour cell line growth inhibition, 48 h
OBSERVATION TYPE: TGI

Here is how some molecules turned out for TGI.
For CC1(C)OC(=O)C(C#N)=C1C[n+]1ccccc1 , write its TGI. > 10 µM

For COC1=C(C)C(=O)C2=C(C1=O)C1C3CC4=C(C(=O)C(OC)=C(C)C4=O)C(CNC(=O)C(C)O)N3C(C#N)C(C2)N1C (stereo not given) , write its TGI. 10.5 µM

For COC(=O)C1=C(C(=O)OC)C(N(C)C)C(C(=O)OC)=C(C(=O)OC)S1 , write its TGI. > 100 µM

For C#CC1(O)CCC2[C@@H]3CCc4cc(Oc5nc(F)nc(-c6c7ccccc7c(SCC)n6CCC)n5)ccc4C3CC[C@@]21C (stereo not given in full) , write its TGI. > 100 µM

Kindly review the next molecule as well.
For CCOC(=O)C(Cc1ccccc1)NC(=O)c1[nH]cnc1/N=N/N(C)C (stereo not given) , write its TGI. > 100 µM
